System: NQO1 specific enzyme activity in BEAS-2B cells (marker for NRF2 activation)
Experiment: BEAS-2B NQO1 MTT Assay
Format: cell-based
Details: Homo sapiens, BEAS-2B, 48 h, NQO1 specific activity induction, 48 hours with compound
pEC50: −log10 of the molar value. Counter-ions that a name gives are not always drawn.
pEC50 values for the compounds below.

{"columns": ["compound", "pEC50"],
 "data": [
  ["CC[C@@H]1CN(Cc2cc([C@H](OCc3cn(C)nn3)C(C)(C)C(=O)O)ccc2C)Cc2ncccc2O1 [Example 111]", "6.00 to 7.00"]
]}

Lab note: measured pEC50 of CC[C@@H]1CN(Cc2cc([C@H](OCc3cn(CC)nn3)C(C)(C)C(=O)O)ccc2C)S(=O)(=O)c2ccccc2O1 [Example 6] was 8.00 to 9.00

The recorded pEC50 for CC[C@@H]1CN(Cc2cc([C@@H](OCc3cn(C)nn3)C(C)(C)C(=O)O)ccc2C)Cc2nc(C)ccc2O1 [Example 110, trifluoroacetate] is 8.00 to 9.00

Measured pEC50 of C#CCOC(c1ccc(C)c(CN2C[C@@H](C)Oc3ccccc3S2(=O)=O)c1)C(C)(C)C(=O)O (stereo partly drawn) [Example 2] : 6.00 to 7.00

# pEC50 of CC[C@H]1Cc2ccccc2S(=O)(=O)N(Cc2cc([C@@H](OCc3cn(CC)nn3)C(C)(C)C(=O)O)ccc2C)C1 [Example 85] = > 9.00

Noted for CC[C@@H]1CN(Cc2cc([C@@H](OCc3cn(CC)nn3)C(C)(C)C(=O)O)ccc2C)S(=O)(=O)c2ncccc2O1 [Example 82] : its pEC50 reads 8.00 to 9.00

Reported pEC50 for COC(=O)C(C)(C)C(OCc1cn(Cc2cccc(-c3cccc(C(=O)O)n3)c2)nn1)c1ccc(C)c(CN2C[C@@H](C)Oc3ccccc3S2(=O)=O)c1 (stereo partly drawn) [Example 58] was 6.00 to 7.00

pEC50 recorded for this compound, CC[C@@H]1Cc2ccccc2S(=O)(=O)N(Cc2cc([C@H](OCc3cn(CC)nn3)C(C)(C)C(=O)O)ccc2C)C1 [Example 69] , is 7.00 to 8.00

For this compound ( CCn1cc(COC(c2ccc(C)c(CN3CC(C)(C)Oc4ccccc4S3(=O)=O)c2)C(C)(C)C(=O)O)nn1 (stereo not drawn) [Example 12] ), measured pEC50 is 8.00 to 9.00

---

As shown below, each of these compounds has a reported pEC50 value.
System: NQO1 specific enzyme activity in BEAS-2B cells (marker for NRF2 activation)
Experiment: BEAS-2B NQO1 MTT Assay
Format: cell-based
Settings: Homo sapiens, BEAS-2B, 48 h, NQO1 specific activity induction, 48 hours with compound
Description: NAD(P)H:quinone oxidoreductase 1 (NQO1), also called DT diaphorase, is a homodimeric FAD-containing enzyme that catalyzes obligatory NAD(P)H-dependent two-electron reductions of quinones and protects cells against the toxic and neoplastic effects of free radicals and reactive oxygen species arising from one-electron reductions. […] On day one, frozen BEAS-2B cells (ATCC) were thawed in a water bath, counted, and re-suspended at a concentration of 250,000 cells/mL. […]
pEC50: −log10 of the molar value. Where a name gives a salt, the structure may show the parent alone.

For orientation, consider the following solved cases.
{"columns": ["compound", "result"],
 "data": [
  ["CCn1cc(CO[C@H](c2ccc(C)c(CN3C[C@H](C)Cc4ncccc4S3(=O)=O)c2)C(C)(C)C(=O)O)nn1", "7.00 to 8.00"],
  ["Cc1ccc(C(OCc2cn(Cc3cccc(-c4cccc(C(=O)O)c4)c3)nn2)C(C)(C)C(=O)O)cc1CN1C[C@@H](C)Oc2ccccc2S1(=O)=O (some centres unmarked)", "7.00 to 8.00"],
  ["CCn1cc(CO[C@H](c2ccc(C)c(CN(Cc3cccc(C(=O)O)c3)S(=O)(=O)c3ccccc3)c2)C(C)(C)C(=O)O)nn1", "5.00 to 6.00"],
  ["CCCn1cc(CO[C@H](c2ccc(C)c(CN3C[C@@H](C)Cc4ncccc4S3(=O)=O)c2)C(C)(C)C(=O)O)nn1", "> 9.00"],
  ["CCCN1CCC(Cn2cc(COC(c3ccc(C)c(CN4C[C@@H](C)Oc5ccccc5S4(=O)=O)c3)C(C)(C)C(=O)O)nn2)CC1 (some centres unmarked)", "6.00 to 7.00"]
]}

The compound Cc1ccc(C(OCc2cn(CC3CCN(C(N)=O)CC3)nn2)C(C)(C)C(=O)O)cc1CN1C[C@@H](C)Oc2ccccc2S1(=O)=O (some centres unmarked) showed pEC50 equal to 6.00 to 7.00

pEC50 measured on CC[C@@H]1CN(Cc2cc([C@@H](OCc3cn(CC)nn3)C(C)(C)C(=O)O)ccc2C)Cc2ncccc2O1 [Example 113, Trifluoroacetate] = 7.00 to 8.00
